Taken from patent US11319322B2.

System: LC-2/AD cells
TEST_METHOD_NOTES: Growth inhibition of RET-positive non-small cell lung cancer cells LC-2/AD (MTS)
Type: cell-based
RECORDED_CONDITIONS: Homo sapiens, LC-2/AD non-small cell lung cancer cells, 48 h
RESULT_TYPE: IC50 (nM)

(a) Cc1ccc(Oc2nc(-c3ccncc3)nc3nn(C)cc23)cc1C(=O)Nc1ccc(CN2CCN(C)CC2)c(C(F)(F)F)c1 [IV-n-2]
(b) COc1cc2nccc(Oc3ccc(NC(=O)C4(C(=O)Nc5ccc(F)cc5)CC4)cc3)c2cc1OC [Cabozantinib]
(c) Cc1ccc(C(=O)Nc2ccc(CN3CCN(C)CC3)c(C(F)(F)F)c2)cc1Oc1nc(-c2cccnc2)nc2c1cnn2C [II-m-1]
(d) Cc1ccc(Oc2nc(-c3ccncc3)nc3c2ncn3C)cc1C(=O)Nc1ccc(CN2CCN(C)CC2)c(C(F)(F)F)c1 [I-n-3]
**Q:** Please list these molecules in decreasing order of IC50. Enter labels, ranked according to the request.
**A:** b, a, d, c
(b: 4150 nM, a: 1400 nM, d: 818 nM, c: 301 nM)
